pIC50: −log10 of the molar value.
Record set: pIC50 | Stearoyl-CoA desaturase (Homo sapiens, UniProt O00767) | literature, multiple sources.

// solved cases for pIC50 follow
COMPOUND | EXPERIMENTAL_RESULT
Cn1cc(Cl)nc(N2CCC(Oc3cc(F)ccc3Cl)CC2)c1=O | 7.52 to 8.00
Cc1ccccc1OC1CCN(c2nc(Cl)cn(C)c2=O)CC1 | 6.00 to 7.00
Cc1ccc(C(C)C)cc1OC1CCN(C(=O)CNc2ccnn(C)c2=O)CC1 | 7.00 to 7.52
O=C(O)Cn1nnc(-c2cc(N3CCC(C(=O)c4cc(F)ccc4CC4CC4)CC3)no2)n1 | > 7.70
Cn1nccc(NC(=O)N2CCC(Oc3cc(C(F)(F)F)ccc3F)CC2)c1=O | 7.00 to 7.52

Input: So what does the record say about pIC50 for Cn1nccc(N2CCC(Oc3cc(C(F)(F)F)ccc3Cl)CC2)c1=O ?
Output: 6.52 to 7.00

Input: So what does the record say about pIC50 for O=C(CNc1ccn[nH]c1=O)N1CCC(Oc2cc(C(F)(F)F)ccc2Cl)CC1 ?
Output: 7.00 to 8.00
